Tested on: allergen induced basophil degranulation
Experiment: CD63 Assay (BASOTEST, FACS, whole blood, anti-IgE)
Assay type: cell-based
Details: whole blood, anti-IgE; Table 2, unit inferred
observedProperty: pIC50
Lab note: report pIC50 as minus log10 of the concentration in molar units, number only.

# molecule, pIC50
data = [
    ("CC1(C)Oc2ccc(Nc3nc(Nc4ccc(N5CCOCC5)cc4)ncc3F)nc2NC1=O", 6.52),
]

// lookup pIC50 for CC1(C)Oc2ccc(Nc3nc(Nc4ccc(N5CCOCC5)nc4)ncc3F)nc2NC1=O 6.60

Return reported pIC50; argument: COc1cc(Nc2ncc(F)c(Nc3ccc4c(n3)NC(=O)C(C)(C)O4)n2)cc(OC)c1OC [reference compound] 6.03
